Listing: τH2O/MeOH of selected molecules
ASSAY_OVERVIEW: Absorption and photoluminescence (quantum yield, lifetime, q)
Type: physicochemical
STATED_CONDITIONS: luminescence lifetime, 5D0 → 7F2 transition; H2O (MeOH for 10)

>  <MOLECULE>
CC[C@H]1CN(CC(=O)[O-])[C@@H](CC)CN(Cc2cc(C#Cc3c(OC)cc(OC)cc3OC)cc(P(C)(=O)[O-])n2)[C@@H](CC)CN(CC(=O)[O-])[C@@H](CC)CN1CC(=O)[O-].[Eu+3]

>  <MEASURE_UNIT>
ms

>  <τH2O/MeOH>
1.12

$$$$
>  <MOLECULE>
CCC1CN(C(C)C(=O)[O-])C(CC)CN(C(C)C(=O)[O-])C(CC)CN(C(C)C(=O)[O-])C(CC)CN1Cc1cc(C#Cc2c(OC)cc(OC)cc2OC)cc(P(C)(=O)[O-])n1.[Eu+3] (centres unmarked)

>  <MEASURE_UNIT>
ms

>  <τH2O/MeOH>
1.25

$$$$
>  <MOLECULE>
COc1cc(OC)c(C#Cc2cc(CN3C[C@H](CC(C)C)N(CC(=O)[O-])C[C@H](CC(C)C)N(CC(=O)[O-])C[C@H](CC(C)C)N(CC(=O)[O-])C[C@@H]3CC(C)C)nc(P(C)(=O)[O-])c2)c(OC)c1.[Eu+3]

>  <MEASURE_UNIT>
ms

>  <τH2O/MeOH>
1.39

$$$$
>  <MOLECULE>
COc1cc(OC)c(C#Cc2cc(CN3CCN(CC(=O)[O-])CCN(CC(=O)[O-])CCN(CC(=O)[O-])CC3)nc(P(C)(=O)[O-])c2)c(OC)c1.[Eu+3]

>  <MEASURE_UNIT>
ms

>  <τH2O/MeOH>
1.01

$$$$
>  <MOLECULE>
CC[C@@H]1CN(CC(=O)[O-])[C@H](CC)CN(Cc2cc(C#Cc3c(OC)cc(OC)cc3OC)cc(P(C)(=O)[O-])n2)[C@H](CC)CN(CC(=O)[O-])[C@H](CC)CN1CC(=O)[O-].[Eu+3]

>  <MEASURE_UNIT>
ms

>  <τH2O/MeOH>
1.20

$$$$
